- tested-system: human GPBAR1 receptor (Homo sapiens (Human), UniProt Q8TDU6)
- Sequence (Q8TDU6 whole entry): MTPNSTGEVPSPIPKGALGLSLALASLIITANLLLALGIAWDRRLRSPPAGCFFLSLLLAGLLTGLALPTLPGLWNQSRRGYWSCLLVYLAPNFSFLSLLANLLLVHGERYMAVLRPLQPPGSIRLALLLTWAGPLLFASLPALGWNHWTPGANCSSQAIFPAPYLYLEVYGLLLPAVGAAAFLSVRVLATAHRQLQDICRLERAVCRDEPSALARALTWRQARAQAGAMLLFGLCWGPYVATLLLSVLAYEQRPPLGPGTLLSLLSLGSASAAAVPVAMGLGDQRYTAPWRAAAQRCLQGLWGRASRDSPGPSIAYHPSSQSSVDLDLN
- test-details: functional cAMP assay in CHO-dhfr(minus) cells expressing human GPBAR1 receptors
- reported-conditions: CHO-dhfr(minus) cells expressing human GPBAR1, 30 min at 30° C.
outcome-measure: EC50 (nM)

compound	EC50 [nM]
COc1cc(F)ccc1-c1ccncc1N(C)C(=O)c1cc(C(F)(F)F)cc(S(=O)(=O)N2CCS(=O)(=O)CC2)c1 [Example 304]	15
CN(C(=O)c1cc(C(F)(F)F)cc(C(F)(F)F)c1)c1cnccc1-c1ccccc1CC#N [Example 175]	571
COc1cc(F)ccc1-c1ccncc1N(CCS(C)(=O)=O)C(=O)c1cc(C(F)(F)F)cc(S(C)(=O)=O)c1 [Example 306]	190
COc1cccc(F)c1-c1ccncc1N(CC(F)(F)F)C(=O)c1cc(C(F)(F)F)cc(S(C)(=O)=O)c1 [Example 223]	46
Cc1ccccc1-c1ccncc1N(C)C(=O)c1cc(Cl)cc(Cl)n1 [Example 123]	473

(I) Cc1ccccc1-c1ccncc1N(C)C(=O)c1cc(C(F)(F)F)cc(C(F)(F)F)c1 [Example 1]
(II) COc1cc(F)ccc1-c1ccncc1N(C)C(=O)c1cc(C2COC2)cc(C(F)(F)F)c1 [Example 235]
(III) CS(=O)(=O)c1cc(C(=O)N(CCO)c2cnccc2-c2ccccc2F)cc(C(F)(F)F)c1 [Example 244]
(IV) CN(C(=O)c1cc(C(F)(F)F)cc(C(F)(F)F)c1)c1cnccc1-c1ccc(F)cc1F [Example 37]
(V) CS(=O)(=O)c1cc(C(=O)N(CC(F)F)c2cnccc2-c2ccccc2F)cc(C(F)(F)F)c1 [Example 215]
Request: Ascending by EC50, please: list the compounds accordingly. # respond with the labels, arranged in the requested order
Result: I, IV, II, V, III

(a) COc1cc(F)ccc1-c1ccncc1N(C)C(=O)c1cc(Cl)nc(C(F)(F)F)c1 [Example 169]
(b) Cc1ccccc1-c1ccncc1N(C(=O)c1cc(C(F)(F)F)cc(C(F)(F)F)c1)C1COC1 [Example 200]
(c) COc1cc(F)ccc1-c1ccncc1N(C)C(=O)c1cc(C(F)(F)F)cc(S(=O)(=O)CCN2CCC2)c1 [Example 265]
Request: Hello, I need these entries ordered by EC50, highest reading first. Thanks! Returns: the labels arranged in the requested order.
Result: b, c, a

(P) CN(C(=O)c1cc(C(F)(F)F)cc(C(F)(F)F)c1)c1cnccc1-c1cccnc1OCC(F)(F)F [Example 106]
(Q) CN(C(=O)c1cc(C(F)(F)F)cc(C(F)(F)F)c1)c1cnccc1-c1cc(F)cnc1Cl [Example 55]
Request: Higher EC50 between P and Q ? Indicate which entry you chose by stating its label.
Result: Q

---

- tested-system: human GPBAR1 receptor (Homo sapiens (Human))
- test-details: functional cAMP assay in CHO-dhfr(minus) cells expressing human GPBAR1 receptors
- Format: cell-based
- reported-conditions: CHO-dhfr(minus) cells expressing human GPBAR1, 30 min at 30° C.
outcome-measure: EC50 (µM)

compound	EC50, µM
Cc1nn(C)c(C)c1-c1ccncc1N(C)C(=O)c1cc(C(F)(F)F)cc(C(F)(F)F)c1	2.96

(A) Cc1ccccc1-c1ccncc1N(C)C(=O)c1cc(F)c(F)c(F)c1
(B) Cc1ccccc1-c1ccncc1N(C)C(=O)c1cc(Cl)nc(C(F)(F)F)c1
Request: Of A and B , which shows the smaller EC50 value? Refer to your chosen entry by its label in the reply.
Result: B
(B: 0.056 µM, A: 1.64 µM)

(I) CN(C(=O)c1cc(C(F)(F)F)cc(S(C)(=O)=O)c1)c1cnccc1-c1cccnc1OCC(F)(F)F
(II) COc1cc(F)ccc1-c1ccncc1N(CC1CCCO1)C(=O)c1cc(C(F)(F)F)cc(S(C)(=O)=O)c1 (single isomer, unassigned; (+)) [Example 232]
Request: Please compare: I and II . Report which one has the smaller EC50 value. Lab note: record the label of whichever item you select.
Result: I
(I: 0.077 µM, II: 0.335 µM)

(1) COc1cc(F)ccc1-c1ccncc1N(C)C(=O)c1cc(C(F)(F)F)cc(S(=O)(=O)C2CNC2)c1
(2) COc1cc(F)c(Cl)cc1-c1cc(C)ncc1N(C)C(=O)c1cc(C(F)(F)F)cc(S(=O)(=O)CCCCC(=O)O)c1
Request: Short answer wanted: higher EC50, 1 or 2 ? // caller expects the label of the chosen entry
Result: 2
(2: 0.926 µM, 1: 0.268 µM)

---

- tested-system: human GPBAR1 receptor (Homo sapiens (Human))
- test-details: functional cAMP assay in CHO-dhfr(minus) cells expressing human GPBAR1 receptors
- reported-conditions: CHO-dhfr(minus) cells expressing human GPBAR1, 30 min at 30° C.
pEC50: −log10 of the molar value.
outcome-measure: pEC50

record-smiles	pEC50
COc1cc(F)ccc1-c1cc(Cl)ncc1N(C)C(=O)c1cc(C(F)(F)F)cc(S(C)(=O)=O)c1	6.57
COc1ccc(-c2ccncc2N(C)C(=O)c2cc(C(F)(F)F)cc(C(F)(F)F)c2)c(C)c1	5.98

(I) COCCN(C(=O)c1cc(C(F)(F)F)cc(S(C)(=O)=O)c1)c1cnccc1-c1c(F)cccc1OC
(II) COc1cc(F)ccc1-c1cc(C)ncc1N(C)C(=O)c1cc(C(F)(F)F)cc(S(=O)(=O)CCCCC(=O)NCC(=O)O)c1
(III) CN(C(=O)c1cc(C(F)(F)F)cc(C(F)(F)F)c1)c1cnccc1-c1ncccc1F
(IV) Cc1ccccc1-c1ccncc1N(C)C(=O)c1cc(C#N)cc(C(F)(F)F)c1
(V) COc1cc(F)ccc1-c1ccncc1N(C)C(=O)c1cc(C(F)(F)F)cc(S(=O)(=O)C2COC2)c1
Request: Form: Sort by [pEC50] Order [ ascending ] Rank the items, then write their labels in that order.
Result: III, II, IV, V, I
(III: 6.10, II: 6.38, IV: 6.62, V: 7.28, I: 7.57)

---

- tested-system: human GPBAR1 receptor (Homo sapiens (Human), UniProt Q8TDU6)
- test-details: functional cAMP assay in CHO-dhfr(minus) cells expressing human GPBAR1 receptors
- Assay type: cell-based
- reported-conditions: CHO-dhfr(minus) cells expressing human GPBAR1, 30 min at 30° C.
pEC50: −log10 of the molar value.
outcome-measure: pEC50

record-smiles	pEC50
COc1ccccc1-c1ccncc1N(C)C(=O)c1cc(C(F)(F)F)cc(C(F)(F)F)c1	7.96

(a) Cc1cccnc1-c1ccncc1N(C)C(=O)c1cc(C(F)(F)F)cc(C(F)(F)F)c1
(b) COc1cc(F)ccc1-c1cc(C)ncc1N(C)C(=O)c1cc(SCCCCC(=O)O)cc(C(F)(F)F)c1
Request: Select the item whose pEC50 value is smaller, choosing between a and b . Refer to your chosen item by its label in the answer.
Result: b

(a) COc1cc(F)ccc1-c1ccncc1N(C)C(=O)c1cc(Cl)cc(C2CC2)c1
(b) CN(C(=O)c1cc(C(F)(F)F)cc(C(F)(F)F)c1)c1cnc(Cl)cc1-c1ncccc1Cl
Request: // which entry has the larger pEC50 value, a or b ? Please respond with the label that marks your chosen entry.
Result: a
(a: 7.64, b: 5.74)

(A) COC(=O)CN(C(=O)c1cc(C(F)(F)F)cc(S(C)(=O)=O)c1)c1cnccc1-c1cc(F)ccc1OC
(B) COc1cc(F)ccc1-c1ccncc1N(CC(F)F)C(=O)c1cc(C(F)(F)F)nc(C(F)(F)F)c1
Request: # argmax over pEC50 for candidates A and B Give the chosen item's label as your response.
Result: B
(B: 7.72, A: 6.28)

---

- tested-system: human GPBAR1 receptor (Homo sapiens (Human))
- test-details: functional cAMP assay in CHO-dhfr(minus) cells expressing human GPBAR1 receptors
- reported-conditions: CHO-dhfr(minus) cells expressing human GPBAR1, 30 min at 30° C.
outcome-measure: EC50 (nM)

molecule	EC50, nM
CCc1cc(-c2ccccc2C)c(N(C)C(=O)c2cc(C(F)(F)F)cc(C(F)(F)F)c2)cn1	1980
COc1cccc(F)c1-c1ccncc1N(C)C(=O)c1cc(C(F)(F)F)cc(C(F)(F)F)c1	8
Cc1cc(-c2ccccc2OC2COC2)c(N(C)C(=O)c2cc(C(F)(F)F)cc(S(C)(=O)=O)c2)cn1	1110

(1) CC(C#N)Oc1cc(F)ccc1-c1ccncc1N(C)C(=O)c1cc(C(F)(F)F)cc(C(F)(F)F)c1 (stereo not drawn)
(2) COc1ccccc1-c1ccncc1N(C)C(=O)c1cc(C(F)(F)F)cc(S(C)(=O)=O)c1
Request: // which entry reports the smaller EC50, 1 or 2 ? Your choice should be expressed through its label.
Result: 2

(A) Cc1ccccc1-c1ccncc1N(C)C(=O)c1cccc(Cl)c1
(B) COc1c(F)cccc1-c1ccncc1N(C)C(=O)c1cc(C(F)(F)F)cc(C(F)(F)F)c1
Request: // returns A or B , whichever has the lower EC50 Selection: enter the item's label.
Result: B
(B: 90 nM, A: 902 nM)

(1) COc1cc(F)ccc1-c1ccncc1N(CCS(C)(=O)=O)C(=O)c1cc(C(F)(F)F)cc(C(F)(F)F)c1
(2) CS(=O)(=O)c1cc(C(=O)N(CC(N)=O)c2cnccc2-c2ccccc2Cl)cc(C(F)(F)F)c1
(3) Cc1ccccc1-c1ccncc1N(C)C(=O)c1cccc(C(F)(F)F)c1
Request: Rank by EC50 (largest to smallest). List the labels according to the requested ordering.
Result: 2, 3, 1
